Where do the numbers come from? From patent US20140271734A1.

- test-method-notes: Toxicokinetics of LUM001 free form, 13-week oral capsule toxicity study in dogs
- Type: in vivo, Beagle dogs
- recorded-conditions: both sexes, Beagle, dog, plasma, oral, 20 mg/kg, Day 1; 20 mg/kg; Comb
quantity-measured: Tmax (h)

CCCCC1(CCCC)CS(=O)(=O)c2ccc(N(C)C)cc2[C@@H](c2ccc(OCc3ccc(C[N+]45CCN(CC4)CC5)cc3)cc2)[C@H]1O [LUM001] :: 2.13

---

- test-method-notes: Toxicokinetics of LUM001 free form, 13-week oral capsule toxicity study in dogs
- Type: in vivo, Beagle dogs
- recorded-conditions: female, Beagle, dog, plasma, oral, 5 mg/kg, Day 91; 5 mg/kg; F
quantity-measured: Tmax (h)

CCCCC1(CCCC)CS(=O)(=O)c2ccc(N(C)C)cc2[C@@H](c2ccc(OCc3ccc(C[N+]45CCN(CC4)CC5)cc3)cc2)[C@H]1O :: 0

---

- test-method-notes: Toxicokinetics of LUM001 free form, 13-week oral capsule toxicity study in dogs
- Assay type: in vivo, Beagle dogs
- recorded-conditions: both sexes, Beagle, dog, plasma, oral, 100 mg/kg, Day 91; 100 mg/kg; Comb; read-out: AUC(0-24 h), mean
quantity-measured: AUC(0-t) (ng·h/mL)

CCCCC1(CCCC)CS(=O)(=O)c2ccc(N(C)C)cc2[C@@H](c2ccc(OCc3ccc(C[N+]45CCN(CC4)CC5)cc3)cc2)[C@H]1O :: 503

---

- test-method-notes: Toxicokinetics of LUM001 free form, 13-week oral gavage toxicity study in rats
- Assay type: in vivo
- recorded-conditions: both sexes, Charles River CD IGS, rat, plasma, oral, 30 mg/kg, Day 78; 30.0 mg/kg; Comb; read-out: AUC(0-24 h)
quantity-measured: AUC(0-t)

CCCCC1(CCCC)CS(=O)(=O)c2ccc(N(C)C)cc2[C@@H](c2ccc(OCc3ccc(C[N+]45CCN(CC4)CC5)cc3)cc2)[C@H]1O :: 0.0117 µg·h/mL

---

- test-method-notes: Toxicokinetics of LUM001 free form, 13-week oral capsule toxicity study in dogs
- Assay type: in vivo, Beagle dogs
- recorded-conditions: male, Beagle, dog, plasma, oral, 100 mg/kg, Day 1; 100 mg/kg; M; read-out: AUC(0-24 h), mean
quantity-measured: AUC(0-t)

CCCCC1(CCCC)CS(=O)(=O)c2ccc(N(C)C)cc2[C@@H](c2ccc(OCc3ccc(C[N+]45CCN(CC4)CC5)cc3)cc2)[C@H]1O :: 134 ng·h/mL

---

- test-method-notes: Toxicokinetics of LUM001 free form, 13-week oral gavage toxicity study in rats
- Type: in vivo
- recorded-conditions: male, CD IGS, rat, plasma, oral, 30 mg/kg, Day 1; 30.0 mg/kg; M; read-out: AUC(0-24 h)
quantity-measured: AUC(0-t) (ng·h/mL)

CCCCC1(CCCC)CS(=O)(=O)c2ccc(N(C)C)cc2[C@@H](c2ccc(OCc3ccc(C[N+]45CCN(CC4)CC5)cc3)cc2)[C@H]1O :: 15.1

---

- test-method-notes: Toxicokinetics of LUM001 free form, 13-week oral capsule toxicity study in dogs
- Type: in vivo, Beagle dogs
- recorded-conditions: male, Beagle, dog, plasma, oral, 5 mg/kg, Day 91; 5 mg/kg; M
quantity-measured: Cmax (ng/mL)

CCCCC1(CCCC)CS(=O)(=O)c2ccc(N(C)C)cc2[C@@H](c2ccc(OCc3ccc(C[N+]45CCN(CC4)CC5)cc3)cc2)[C@H]1O [LUM001] :: 3.5

---

- test-method-notes: Toxicokinetics of LUM001 free form, 13-week oral capsule toxicity study in dogs
- Assay type: in vivo, Beagle dogs
- recorded-conditions: female, Beagle, dog, plasma, oral, 20 mg/kg, Day 1; 20 mg/kg; F
quantity-measured: Cmax (ng/mL)

CCCCC1(CCCC)CS(=O)(=O)c2ccc(N(C)C)cc2[C@@H](c2ccc(OCc3ccc(C[N+]45CCN(CC4)CC5)cc3)cc2)[C@H]1O :: 25.3
